study-system: c-Met (Homo sapiens)
Construct: Kinases are expressed as either kinase domains or full length constructs; made in house
Sequence (P08581 25-1390): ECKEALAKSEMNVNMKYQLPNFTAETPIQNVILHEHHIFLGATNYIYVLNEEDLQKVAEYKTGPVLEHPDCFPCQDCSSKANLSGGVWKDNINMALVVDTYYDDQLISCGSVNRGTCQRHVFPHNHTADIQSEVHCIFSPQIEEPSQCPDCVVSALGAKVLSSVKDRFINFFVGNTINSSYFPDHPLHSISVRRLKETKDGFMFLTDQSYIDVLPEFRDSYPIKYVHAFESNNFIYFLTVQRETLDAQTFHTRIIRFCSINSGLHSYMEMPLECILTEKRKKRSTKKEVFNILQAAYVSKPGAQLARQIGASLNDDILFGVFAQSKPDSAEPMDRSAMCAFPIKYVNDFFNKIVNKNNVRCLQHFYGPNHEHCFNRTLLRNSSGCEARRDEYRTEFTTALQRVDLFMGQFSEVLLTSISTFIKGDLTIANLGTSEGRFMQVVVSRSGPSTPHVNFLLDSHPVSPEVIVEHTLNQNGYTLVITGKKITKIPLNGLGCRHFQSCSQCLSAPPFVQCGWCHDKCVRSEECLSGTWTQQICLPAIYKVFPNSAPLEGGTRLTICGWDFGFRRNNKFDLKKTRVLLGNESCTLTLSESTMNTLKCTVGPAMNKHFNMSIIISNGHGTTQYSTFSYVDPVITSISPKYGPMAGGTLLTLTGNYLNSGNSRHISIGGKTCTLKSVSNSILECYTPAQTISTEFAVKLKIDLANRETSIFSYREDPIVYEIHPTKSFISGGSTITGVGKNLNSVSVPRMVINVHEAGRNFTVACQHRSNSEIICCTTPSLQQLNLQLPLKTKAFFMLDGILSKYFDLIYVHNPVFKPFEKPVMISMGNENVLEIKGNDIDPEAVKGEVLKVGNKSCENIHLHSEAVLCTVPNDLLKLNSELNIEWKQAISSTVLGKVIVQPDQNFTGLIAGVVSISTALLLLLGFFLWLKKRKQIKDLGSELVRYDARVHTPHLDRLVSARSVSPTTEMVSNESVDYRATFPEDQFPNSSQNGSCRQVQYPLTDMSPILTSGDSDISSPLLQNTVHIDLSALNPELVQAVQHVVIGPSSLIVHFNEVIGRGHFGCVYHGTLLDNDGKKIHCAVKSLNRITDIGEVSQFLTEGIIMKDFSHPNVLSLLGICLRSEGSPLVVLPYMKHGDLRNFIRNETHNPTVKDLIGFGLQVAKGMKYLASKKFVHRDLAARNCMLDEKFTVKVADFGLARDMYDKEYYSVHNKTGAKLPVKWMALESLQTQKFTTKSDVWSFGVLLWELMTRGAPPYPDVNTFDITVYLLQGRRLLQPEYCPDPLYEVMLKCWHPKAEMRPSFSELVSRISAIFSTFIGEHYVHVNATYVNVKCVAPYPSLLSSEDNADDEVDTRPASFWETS
experimental-protocol: Kinase inhibition assay (33P transfer), c-Met
Assay type: biochemical
measurement-parameters: Table 2, kinase inhibition class; read-out: Met-1
quantity-measured: IC50

Check out these entries, answers already filled in.
molecule | quantity-measured | experimental-value
CC(C)(C)c1ccc(Nc2ncnc(-n3c(N)nc4ccccc43)n2)cc1 [Compound 525] | IC50 | 9.74 to 12.5 µM
CN(c1cccc(Cl)c1)c1ncnc(Nc2cccc(CC(=O)O)c2)n1 [Compound 706] | IC50 | 1.08 to 6.49 µM
COc1cc(Nc2ncnc(-n3c(NCc4ccccc4C)nc4ccccc43)n2)cc(OC)c1OC [Compound 511] | IC50 | > 9.04 µM
COc1ccc(Nc2ncnc(-n3c(=O)[nH]c4ccccc43)n2)cn1 [Compound 489] | IC50 | > 13.4 µM
COCCOc1ccc(Nc2ncnc(Nc3ccc4[nH]ccc4c3)n2)cc1OCCOC [Compound 321] | IC50 | > 9.99 µM

// below: IC50 requested for another molecule
query: Return reported IC50; argument: CNc1ncnc(Nc2cc(OC)c(OC)c(OC)c2)n1 [Compound 409]
result: > 15.4 µM
